Target: BCRP (Homo sapiens, UniProt Q9UNQ0)
Sequence (Q9UNQ0 whole entry): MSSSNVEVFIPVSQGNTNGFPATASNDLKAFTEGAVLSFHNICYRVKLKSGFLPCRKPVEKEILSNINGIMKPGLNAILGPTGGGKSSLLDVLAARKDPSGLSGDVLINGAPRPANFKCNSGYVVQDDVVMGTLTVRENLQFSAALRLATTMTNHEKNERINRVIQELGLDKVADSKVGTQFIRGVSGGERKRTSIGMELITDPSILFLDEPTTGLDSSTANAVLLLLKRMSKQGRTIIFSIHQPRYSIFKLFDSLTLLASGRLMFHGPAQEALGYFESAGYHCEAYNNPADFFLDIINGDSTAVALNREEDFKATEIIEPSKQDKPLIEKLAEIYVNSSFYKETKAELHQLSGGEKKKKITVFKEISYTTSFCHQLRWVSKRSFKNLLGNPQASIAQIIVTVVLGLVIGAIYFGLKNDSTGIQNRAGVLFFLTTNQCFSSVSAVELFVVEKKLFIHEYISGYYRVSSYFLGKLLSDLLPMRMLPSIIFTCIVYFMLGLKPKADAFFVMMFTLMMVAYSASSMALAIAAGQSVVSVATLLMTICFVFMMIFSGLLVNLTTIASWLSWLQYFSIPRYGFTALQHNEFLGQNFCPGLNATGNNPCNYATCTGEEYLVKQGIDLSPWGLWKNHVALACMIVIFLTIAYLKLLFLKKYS
Experiment: in vitro
Conditions: Caco-2
metric: efflux ratio at 2 h
Lab note: jot down the number only; don't add units.

molecule	measured-number
CC(C)NCC(O)COc1cccc2ccccc12 (centres unmarked)	1.09

As a next step, examine the molecule that follows.
Name the reported efflux ratio at 2 h value associated with the molecule CC(C)c1nc(N(C)S(C)(=O)=O)nc(-c2ccc(F)cc2)c1/C=C/[C@@H](O)C[C@@H](O)CC(=O)O [Rosuvastatin, rosuvastatin, reference compound]
81.2

----------
Molecular target: BCRP (Homo sapiens)
Assay: Study on transporter substrates in Caco-2 cell model
Details: human, Caco-2, Efflux ratio, Caco-2; KO143 −
metric: efflux ratio at 2 h
Lab note: jot down the number only; don't add units.

// known answers, use as guide
compound	metric	measured-number
CC[C@@]1(O)C(=O)OCc2c1cc1n(c2=O)Cc2c-1nc1cc(F)c(C)c3c1c2[C@@H](NC(=O)[C@H]1C[C@@H](O)C1)CC3	efflux ratio at 2 h	28.7
CC[C@@]1(O)C(=O)OCc2c1cc1n(c2=O)Cc2c-1nc1cc(F)c(C)c3c1c2[C@@H](N1CCC(O)C1=O)CC3 (stereo partly shown)	efflux ratio at 2 h	32.4
CC[C@@]1(O)C(=O)OCc2c1cc1n(c2=O)Cc2c-1nc1cc(F)c(C)c3c1c2[C@@H](NC(=O)[C@H]1C[C@H](O)C1)CC3	efflux ratio at 2 h	36.1

What is its efflux ratio at 2 h for BCRP (Homo sapiens)? Entry: CC[C@@]1(O)C(=O)OCc2c1cc1n(c2=O)Cc2c-1nc1cc(F)c(C)c3c1c2[C@@H](NC(=O)C1CCC(O)CC1)CC3 (single isomer, unassigned)
28.7
